// provenance: ChEMBL document CHEMBL4138146

Quick reference: growth at 10 µM of the listed items.
System: BT-549
assay explanation: Growth inhibition of human BT549 cells assessed as cell growth at 10 uM incubated for 48 hrs by sulforhodamine B assay relative to control
Type: functional
condition info: BT-549, 48 h, read-out: Activity
endpoint: growth at 10 µM (%)

[[record]]
compound = "CCCCn1c(=O)c(C2CNC(=O)c3ccccc3N2)cc2ccc(Cl)cc21 (configuration not stated)"
endpoint = "growth at 10 µM"
quantitative_result = 104

[[record]]
compound = "CCCCn1c(=O)c(C2CNC(=O)c3ccccc3N2)cc2ccccc21 (configuration not stated)"
endpoint = "growth at 10 µM"
quantitative_result = 97.8

[[record]]
compound = "O=C1CC(c2cc3ccccc3[nH]c2=O)Nc2ccccc21 (configuration not stated)"
endpoint = "growth at 10 µM"
quantitative_result = 94.3

[[record]]
compound = "Cc1cccc2cc(C3CNC(=O)c4ccccc4N3)c(=O)[nH]c12 (configuration not stated)"
endpoint = "growth at 10 µM"
quantitative_result = 112

[[record]]
compound = "O=C1NCC(c2cc3ccc(Cl)cc3[nH]c2=O)Nc2ccccc21 (configuration not stated)"
endpoint = "growth at 10 µM"
quantitative_result = 99.9

[[record]]
compound = "CCCCOc1nc2ccccc2cc1C1CNC(=O)c2ccccc2N1 (configuration not stated)"
endpoint = "growth at 10 µM"
quantitative_result = 41

[[record]]
compound = "CCCCOc1nc2ccc(OC)cc2cc1C1CNC(=O)c2ccccc2N1 (configuration not stated)"
endpoint = "growth at 10 µM"
quantitative_result = 98.1

[[record]]
compound = "Cc1ccc2[nH]c(=O)c(C3CNC(=O)c4ccccc4N3)cc2c1 (configuration not stated)"
endpoint = "growth at 10 µM"
quantitative_result = 99.4

[[record]]
compound = "O=C1CC(c2cc3ccc4ccccc4c3[nH]c2=O)Nc2ccccc21 (configuration not stated)"
endpoint = "growth at 10 µM"
quantitative_result = 69.4

[[record]]
compound = "O=C1NCC(c2cc3ccccc3[nH]c2=O)Nc2ccccc21 (configuration not stated)"
endpoint = "growth at 10 µM"
quantitative_result = 96.3

[[record]]
compound = "O=C1NCC(c2cc3ccc4ccccc4c3[nH]c2=O)Nc2ccccc21 (configuration not stated)"
endpoint = "growth at 10 µM"
quantitative_result = 93.1

[[record]]
compound = "CCCCOc1nc2c(C)cccc2cc1C1CNC(=O)c2ccccc2N1 (configuration not stated)"
endpoint = "growth at 10 µM"
quantitative_result = 74.5

